Assay: optical density change of DRC41 E. coli – strain DRC41, OD650, 24 h, E. coli filamentation project, primary screen (AID 1093);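 further: MC1000 strain lacking acrAB efflux and sulA so SOS filamentation is blocked; test concentration not given here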
Settings: E. coli DRC41 growth, higher = more signal, called active from +8 up or from −8 down
experimentalReadout: z-score
Answer with a bare number; do not write a unit.

Observe how each entry below is paired with its result.
1. O=C1OCCC=C[C@H]2OC34C=CCN(Cn5nnc6ccccc65)C(=O)[C@H]3N(CCO)C(=O)[C@@H]4C12 (some centres not stated): 2.26
2. COCCOC(=O)N1C(=O)[C@@]2(c3cc(C#CC4=CCCCC4)ccc31)[C@H](C(N)=O)[C@H]1C(=O)O[C@H](c3ccccc3)[C@H](c3ccccc3)N1[C@@H]2c1ccc(O)cc1: 0.573
3. [N-]=[N+]=Nc1ccccc1C[C@@]1(C(=O)N2CCCCC2)N=C(c2ccc(OCCCO)cc2)O[C@@H]1c1ccccc1N=[N+]=[N-]: 0.799
4. CCOC(=O)C[C@H]1[C@H](OC(=O)c2ccc(C(=O)c3ccccc3)cc2)[C@@H](NC(=O)Cc2ccc(OC)cc2)c2cc(OCCCO)ccc2N1C(=O)c1ccc2ccccc2n1: 0.213
5. OB1C=CCC(CCc2ccccc2)O1 (configuration not stated): 1.96

Inquiry: Requested read-out: z-score. Entry: COC(=O)c1c2oc(c1C(=O)OC)C(=O)NC1(CCCCC1)c1cn(nn1)C[C@H](Cc1ccccc1)NC(=O)N[C@H](CO)CC2
Reply text: 1.52

Inquiry: How about this compound: CCOc1ccc(N2C(=O)CSC2c2cccc([N+](=O)[O-])c2)cc1 (configuration not stated)
Reply text: 1.01
